Values compiled from patent US20050256058A1.

Molecular target: T1, schistosome legumain SmAE (Schistosoma mansoni asparaginyl endopeptidase) (Schistosoma mansoni), P09841
T1 chain: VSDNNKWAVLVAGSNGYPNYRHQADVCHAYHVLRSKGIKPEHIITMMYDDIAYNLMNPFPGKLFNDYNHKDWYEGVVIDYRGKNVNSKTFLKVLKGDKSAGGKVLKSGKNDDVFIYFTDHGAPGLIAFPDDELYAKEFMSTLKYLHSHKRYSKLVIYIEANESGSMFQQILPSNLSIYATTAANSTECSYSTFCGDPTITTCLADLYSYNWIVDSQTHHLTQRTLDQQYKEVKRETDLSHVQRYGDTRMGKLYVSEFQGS
Experiment: cell-based or functional assay
Square brackets hold non-standard residues; d marks the D form. * marks the point of attachment. Cbz = O=C(OCc1ccccc1)*
result_type: IC50 (nM)

Cbz-Ala-Ala-[AAsn]-{CH:CH‑CON(Bzl)2} [Cbz-Ala-Ala-AAsn-CH═CH-CON(Bzl)2] | 45
Cbz-Ala-Ala-[AAsn]-{CH:CH‑CON(Bzl)‑1‑CH2‑Napth} [Cbz-Ala-Ala-AAsn-CH═CH-CON(Bzl)-1-CH2-Napth] | 62
Cbz-Ala-Ala-[AAsn]-{CH:CH‑CON(CH3)Bzl} [Cbz-Ala-Ala-AAsn-CH═CH-CON(CH3)Bzl] | 55
